Biological target: Bile salt export pump (Homo sapiens)
Test: Inhibition of human BSEP expressed in fall armyworm sf9 cell plasma membrane vesicles assessed as reduction in vesicle-associated [3H]-taurocholate transport preincubated for 10 mins prior to ATP addition measured after 15 mins in presence of [3H]-taurocholate by topcount based membrane vesicle transport assay
Assay type: ADME
experimental-readout: IC50

molecule	IC50
CN(C)CCCN1c2ccccc2Sc2ccc(Cl)cc21	> 135 µM
N=C(N)NC(=O)Cc1c(Cl)cccc1Cl	> 135 µM
COc1cc(NC(C)CCCN)c2ncccc2c1 (centres undefined)	32.7 µM
Nc1ccc(S(=O)(=O)Nc2ncccn2)cc1	> 135 µM
CC(C)NNC(=O)c1ccncc1	> 135 µM
CCCCCC[C@H]1C(=O)O[C@H](C)[C@H](NC(=O)c2cccc(NC=O)c2O)C(=O)O[C@@H](C)[C@@H]1OC(=O)CC(C)C [ANTIMYCIN A]	45 to 60 µM
O=P(O)(O)C(O)(Cn1ccnc1)P(=O)(O)O	> 135 µM
CN1C(=O)CN=C(c2ccccc2)c2cc(Cl)ccc21	> 135 µM

Kindly state the measured IC50 obtained for CC(C)(C)NC(=O)[C@H]1CC[C@H]2[C@@H]3CC[C@H]4NC(=O)C=C[C@]4(C)[C@H]3CC[C@]12C [FINASTERIDE] with Bile salt export pump (Homo sapiens).
28.2 µM

Moving on to O=P1(N(CCCl)CCCl)NCCCO1 (centres undefined) [CYCLOPHOSPHAMIDE ANHYDROUS]
> 135 µM

And for `O=c1c(O)c(-c2ccc(O)c(O)c2)oc2cc(O)cc(O)c12` ?
> 135 µM

Same again, this time with `Nc1cc(-c2ccncc2)c[nH]c1=O`
> 135 µM

###

Biological target: Bile salt export pump (Homo sapiens)
Assay: Inhibition of human BSEP expressed in fall armyworm sf9 cell plasma membrane vesicles assessed as reduction in vesicle-associated [3H]-taurocholate transport preincubated for 10 mins prior to ATP addition measured after 15 mins in presence of [3H]-taurocholate by topcount based membrane vesicle transport assay
Type: ADME
Measured IC50, listed per entry for reference.
A number alone suffices; assume µM.

Previously resolved entries follow.
molecule	target-entity	IC50, µM
Cc1c(O)cccc1C(=O)N[C@@H](CSc1ccccc1)[C@H](O)CN1C[C@H]2CCCC[C@H]2C[C@H]1C(=O)NC(C)(C)C	Bile salt export pump (Homo sapiens)	11.8
CCC(=O)O[C@H]1[C@H](O[C@@H]2[C@@H](C)[C@H](O[C@H]3C[C@@](C)(OC)[C@@H](O)[C@H](C)O3)[C@@H](C)C(=O)O[C@H](CC)[C@@](C)(O)[C@H](O)[C@@H](C)C(=O)[C@H](C)C[C@@]2(C)O)O[C@H](C)C[C@@H]1N(C)C [ERYTHROMYCIN ESTOLATE]	Bile salt export pump (Homo sapiens)	13
CCC(C)n1ncn(-c2ccc(N3CCN(c4ccc(OCC5COC(Cn6cncn6)(c6ccc(Cl)cc6Cl)O5)cc4)CC3)cc2)c1=O (stereo unspecified)	Bile salt export pump (Homo sapiens)	18

Query molecule follows.
Bench note: what IC50 did `CS(=O)(=O)CCNCc1ccc(-c2ccc3ncnc(Nc4ccc(OCc5cccc(F)c5)c(Cl)c4)c3c2)o1` show?
6.5

###

Target: Bile salt export pump (Homo sapiens)
Test: Inhibition of human BSEP expressed in fall armyworm sf9 cell plasma membrane vesicles assessed as reduction in vesicle-associated [3H]-taurocholate transport preincubated for 10 mins prior to ATP addition measured after 15 mins in presence of [3H]-taurocholate by topcount based membrane vesicle transport assay
Format: ADME
Entries and their measured pIC50 follow.
Just so you know, pIC50 here is -log10 of the concentration in molar units; reply with that number alone.

Give the reported pIC50 for COC(=O)C1=C(C)NC(C)=C(C(=O)OCCN(C)Cc2ccccc2)C1c1cccc([N+](=O)[O-])c1 (centres undefined) (system: Bile salt export pump (Homo sapiens)).
5.10

Now consider `CN[C@@H]1C[C@H]2O[C@@](C)([C@@H]1OC)n1c3ccccc3c3c4c(c5c6ccccc6n2c5c31)C(=O)NC4` .
4.73

Same read-out for `Cc1ccc(C(=O)c2cc(O)c(O)c([N+](=O)[O-])c2)cc1` ?
4.46

###

Molecular target: Bile salt export pump (Homo sapiens)
Test: Inhibition of human BSEP expressed in fall armyworm sf9 cell plasma membrane vesicles assessed as reduction in vesicle-associated [3H]-taurocholate transport preincubated for 10 mins prior to ATP addition measured after 15 mins in presence of [3H]-taurocholate by topcount based membrane vesicle transport assay
Assay type: ADME
Each record here notes measured IC50.

Past entries and their recorded results:
compound	IC50
CC(C)C(=O)Nc1ccc([N+](=O)[O-])c(C(F)(F)F)c1 [FLUTAMIDE]	> 135 µM
CCOc1ccc(NC(C)=O)cc1 [PHENACETIN]	> 135 µM
CNS(=O)(=O)Cc1ccc2[nH]cc(CCN(C)C)c2c1	> 135 µM

I'd like to know its IC50. The compound in question is CCOc1ccc(/C=C2\NCCc3cc(OCC)c(OCC)cc32)cc1OCC [DROTAVERINE]
37 µM

Please answer likewise for CN(C)CCC(c1ccc(Cl)cc1)c1ccccn1 (centres undefined) [CHLORPHENIRAMINE]
> 135 µM

Okay, and Cc1ncc2n1-c1ccc(Cl)cc1C(c1ccccc1F)=NC2 [MIDAZOLAM] ?
41.7 µM

Next entry: N[C@@H](CC(=O)N1CCn2c(nnc2C(F)(F)F)C1)Cc1cc(F)c(F)cc1F [SITAGLIPTIN]
> 135 µM

Item: O=C(NCCN1CCOCC1)c1ccc(Cl)cc1 [MOCLOBEMIDE]
> 135 µM

Please give the result for CC(C)(C)NC[C@H](O)COc1nsnc1N1CCOCC1 [TIMOLOL] too.
> 135 µM

###

Target: Bile salt export pump (Homo sapiens, UniProt O95342)
Experiment: Inhibition of human BSEP expressed in fall armyworm sf9 cell plasma membrane vesicles assessed as reduction in vesicle-associated [3H]-taurocholate transport preincubated for 10 mins prior to ATP addition measured after 15 mins in presence of [3H]-taurocholate by topcount based membrane vesicle transport assay
Type: ADME
experimental-readout: IC50

Guide cases for IC50, answers given:
molecule	measured
Cc1c(OCC(F)(F)F)ccnc1C[S+]([O-])c1nc2ccccc2[nH]1 (stereo not drawn)	> 135 µM
CNC(=O)c1cc(Oc2ccc(NC(=O)Nc3ccc(Cl)c(C(F)(F)F)c3)cc2)ccn1	8 µM

Below: the item to evaluate.
Lab request: please report IC50 under test system Bile salt export pump (Homo sapiens, UniProt O95342) for C[C@@H]1CCC[C@H](C)N1NC(=O)c1ccc(Cl)c(S(N)(=O)=O)c1 [CLOPAMIDE]
> 135 µM

###

Catalogue of IC50 readings, one per entry.
Biological target: Bile salt export pump (Homo sapiens, UniProt O95342)
Experiment: Inhibition of human BSEP expressed in fall armyworm sf9 cell plasma membrane vesicles assessed as reduction in vesicle-associated [3H]-taurocholate transport preincubated for 10 mins prior to ATP addition measured after 15 mins in presence of [3H]-taurocholate by topcount based membrane vesicle transport assay
Assay type: ADME

molecule	measured
COc1cc(Cc2cnc(N)nc2N)cc(OC)c1OC [TRIMETHOPRIM]	> 135 µM
CC[C@H]1OC(=O)[C@H](C)C(=O)[C@H](C)[C@@H](O[C@@H]2O[C@H](C)C[C@H](N(C)C)[C@H]2O)[C@](C)(OC)C[C@@H](C)C(=O)[C@H](C)[C@H]2N(CCCCn3cnc(-c4cccnc4)c3)C(=O)O[C@]12C [TELITHROMYCIN]	4 µM

Next molecule, IC50 to be filled in.
Data request, read-out IC50, for COc1ccc2cc([C@H](C)C(=O)O)ccc2c1 [NAPROXEN]
> 135 µM

###

pIC50 by entry:
Biological target: Bile salt export pump (Homo sapiens, UniProt O95342)
Assay: Inhibition of human BSEP expressed in fall armyworm sf9 cell plasma membrane vesicles assessed as reduction in vesicle-associated [3H]-taurocholate transport preincubated for 10 mins prior to ATP addition measured after 15 mins in presence of [3H]-taurocholate by topcount based membrane vesicle transport assay
Type: ADME
pIC50: −log10 of the molar value.

Example cases with answers are listed next.
item-smiles	target-entity	measured
COc1ccc2cc1Oc1cc3c(cc1OC)CC[N+](C)(C)[C@H]3Cc1ccc(cc1)Oc1c(OC)c(OC)cc3c1[C@@H](C2)[N+](C)(C)CC3	Bile salt export pump (Homo sapiens, UniProt O95342)	< 3.87
COc1ccc(Cc2nccc3cc(OC)c(OC)cc23)cc1OC	Bile salt export pump (Homo sapiens, UniProt O95342)	< 3.87

// below: pIC50 requested for another compound
Which pIC50 reading was recorded for the compound `CCCCc1ncc(/C=C(\Cc2cccs2)C(=O)O)n1Cc1ccc(C(=O)O)cc1` ?
< 3.87

###

Biological target: Bile salt export pump (Homo sapiens, UniProt O95342)
Test: Inhibition of human BSEP expressed in fall armyworm sf9 cell plasma membrane vesicles assessed as reduction in vesicle-associated [3H]-taurocholate transport preincubated for 10 mins prior to ATP addition measured after 15 mins in presence of [3H]-taurocholate by topcount based membrane vesicle transport assay
Assay type: ADME
pIC50: −log10 of the molar value.
experimental-readout: pIC50

Solved entries (count: 2):
compound	pIC50
ClC(Cl)(Cl)Cl [CARBON TETRACHLORIDE]	< 3.87
Cc1cc(NS(=O)(=O)c2ccc(N)cc2)no1 [SULFAMETHOXAZOLE]	< 3.87

Please report the recorded pIC50 for N=C(N)c1ccc(OCCCCCOc2ccc(C(=N)N)cc2)cc1 [PENTAMIDINE] .
< 3.87
